// reported combination Emax per item
Test system: MOLT-13 (T-Lymphoblastic Leukemia)
Assay: combination Emax (second highest fraction inhibited in the dose matrix, 72 h); higher = more inhibition; extreme values may be limits of the assay
QUANTITY_KIND: combination Emax

COMPOUND: COc1nnc2ccc(N3CCC(c4ccc(OCCN5CCN(C)C(=O)[C@H]5C)cc4)CC3)nn12 [AZD5153] + CN(CC[C@H](CSC1=CC=CC=C1)NC2=C(C=C(C=C2)S(=O)(=O)NC(=O)C3=CC=C(C=C3)N4CCC(CC4)[C@H](C5=CC=CC=C5C6=CC=C(C=C6)Cl)O)S(=O)(=O)C(F)(F)F)CCO [AZD4320] (first compound max 1 µM, 7x7, partner max 1 µM)
QUANTITY_KIND: combination Emax
RECORDED_NUMBER: 1

COMPOUND: CN(C)CCCOc1ccc(-c2ccc3ncc4c(c3c2)n(C2CCOCC2)c(=O)n4C)cn1 [AZD0156] + C[C@@H]1COCCN1C2=NC(=NC(=C2)C3(CC3)[S@](=N)(=O)C)C4=C5C=CNC5=NC=C4 [AZD6738] (first compound max 1 µM, 7x7, partner max 10 µM)
QUANTITY_KIND: combination Emax
RECORDED_NUMBER: 0.925

COMPOUND: NC1(C(=O)N[C@@H](CCO)c2ccc(Cl)cc2)CCN(c2ncnc3[nH]ccc23)CC1 [Capivasertib] + C[C@@H]1COCCN1C2=NC(=NC(=C2)C3(CC3)[S@](=N)(=O)C)C4=C5C=CNC5=NC=C4 [AZD6738] (first compound max 10 µM, 7x7, partner max 10 µM)
QUANTITY_KIND: combination Emax
RECORDED_NUMBER: 0.957

###

// reported Bliss excess per item
System: Raji (Burkitt's Lymphoma);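 note: after 72 h of two-drug dosing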
Assay: Bliss excess, mean over the matrix (fraction); higher = more synergy

COMPOUND: C[C@@H]1COCCN1c1cc(C2([S@](C)(=N)=O)CC2)nc(-c2ccnc3[nH]ccc23)n1 [AZD6738] + O=C(c1cc(Cc2n[nH]c(=O)c3ccccc23)ccc1F)N1CCN(C(=O)C2CC2)CC1 [Olaparib] (first compound max 10 µM, 7x7, partner max 10 µM)
Bliss excess: -0.0204
//
COMPOUND: Cn1cnc2c(F)c(Nc3ccc(Br)cc3Cl)c(C(=O)NOCCO)cc21 [Selumetinib] + C[C@@H]1COCCN1C2=NC(=NC(=C2)C3(CC3)[S@](=N)(=O)C)C4=C5C=CNC5=NC=C4 [AZD6738] (first compound max 10 µM, 7x7, partner max 10 µM)
Bliss excess: -0.0273
//
COMPOUND: C[C@@H](c1ccc2nccn2c1)n1nnc2ncc(-c3cnn(C)c3)nc21 [Savolitinib] + Cc1c2c(nn1C)CSCc1cc(n(C)n1)CSc1cc(c3ccccc3c1)OCCCc1c(C(=O)O)n(C)c3c-2c(Cl)ccc13 [AZD5991] (first compound max 1 µM, 7x7, partner max 1 µM)
Bliss excess: -0.0383
//
COMPOUND: CC1(C)CCC(CN2CCN(c3ccc(C(=O)NS(=O)(=O)c4ccc(NCC5CCOCC5)c([N+](=O)[O-])c4)c(Oc4cnc5[nH]ccc5c4)c3)CC2)=C(c2ccc(Cl)cc2)C1 [Venetoclax] + COc1cc(Nc2ncc3c(n2)-c2ccc(Cl)cc2C(c2c(F)cccc2OC)=NC3)ccc1C(=O)O [Alisertib] (first compound max 1 µM, 7x7, partner max 10 µM)
Bliss excess: -0.006
//
COMPOUND: CCN(CCO)CCCOc1ccc2c(Nc3cc(CC(=O)Nc4cccc(F)c4)[nH]n3)ncnc2c1 [AZD2811] + C[C@@H]1COCCN1C2=NC(=NC(=C2)C3(CC3)[S@](=N)(=O)C)C4=C5C=CNC5=NC=C4 [AZD6738] (first compound max 1 µM, 7x7, partner max 10 µM)
Bliss excess: -0.0562
//
COMPOUND: COc1cccc(OCCCN)c1-c1cc(Nc2cnc(C#N)cn2)n[nH]1 [Prexasertib] + Cc1cc2ncnn2cc1Nc1ncc2c(n1)n(C1CCOCC1)c(=O)n2C [AZD7648] (first compound max 1 µM, 7x7, partner max 10 µM)
Bliss excess: -0.0135
//
COMPOUND: CC1(C)CCC(CN2CCN(c3ccc(C(=O)NS(=O)(=O)c4ccc(NCC5CCOCC5)c([N+](=O)[O-])c4)c(Oc4cnc5[nH]ccc5c4)c3)CC2)=C(c2ccc(Cl)cc2)C1 [Venetoclax] + CCN(CCO)CCCOc1ccc2c(Nc3cc(CC(=O)Nc4cccc(F)c4)[nH]n3)ncnc2c1 [AZD2811] (first compound max 1 µM, 7x7, partner max 1 µM)
Bliss excess: -0.016
